Origin of measurements: patent US4233303A

Kindly state ED50 for each of the entries shown.
# Tested on: actively sensitized rat (anaphylactic bronchospasm)
# experimental-details: Active lung anaphylaxis in the rat (increase in intratracheal pressure after ovalbumin)
# Format: in vivo, Sprague Dawley (printed "Spargue Dawley")
# condition-context: Rattus norvegicus, iv, read-out: Extrapolated intravenous dose for 50% protection (ED 50), i.v.; Table VIII
One number for each entry, in mg/kg.

Look over these answered cases.
- molecule: "Cc1nc2c([nH]1)c(=O)n(C)c(=O)n2C1CCCC1"
  system: "actively sensitized rat (anaphylactic bronchospasm)"
  unit-of-measure: "mg/kg"
  measurement: 0.13
- molecule: "CCCn1c(=O)c2[nH]c(C)nc2n(CC(C)O)c1=O (centres unmarked)"
  system: "actively sensitized rat (anaphylactic bronchospasm)"
  unit-of-measure: "mg/kg"
  measurement: 0.01
- molecule: "Cc1nc2c([nH]1)c(=O)n(C)c(=O)n2-c1ccccc1"
  system: "actively sensitized rat (anaphylactic bronchospasm)"
  unit-of-measure: "mg/kg"
  measurement: 0.016
- molecule: "Cc1nc2c([nH]1)c(=O)n(C)c(=O)n2CC(C)O (centres unmarked)"
  system: "actively sensitized rat (anaphylactic bronchospasm)"
  unit-of-measure: "mg/kg"
  measurement: 0.12

QUERY: Name the reported ED50 value associated with the molecule "CCn1c(=O)c2[nH]c(C)nc2n(CC2CCCCC2)c1=O"
RESULT: 0.04
